All figures here come from paper PMC11094307.

tested on: EGFR L858R/T790M (Homo sapiens, UniProt P00533, L858R/T790M)
Construct: purchased Promega Corporation, USA
Sequence (P00533 25-1210 T790M/L858R): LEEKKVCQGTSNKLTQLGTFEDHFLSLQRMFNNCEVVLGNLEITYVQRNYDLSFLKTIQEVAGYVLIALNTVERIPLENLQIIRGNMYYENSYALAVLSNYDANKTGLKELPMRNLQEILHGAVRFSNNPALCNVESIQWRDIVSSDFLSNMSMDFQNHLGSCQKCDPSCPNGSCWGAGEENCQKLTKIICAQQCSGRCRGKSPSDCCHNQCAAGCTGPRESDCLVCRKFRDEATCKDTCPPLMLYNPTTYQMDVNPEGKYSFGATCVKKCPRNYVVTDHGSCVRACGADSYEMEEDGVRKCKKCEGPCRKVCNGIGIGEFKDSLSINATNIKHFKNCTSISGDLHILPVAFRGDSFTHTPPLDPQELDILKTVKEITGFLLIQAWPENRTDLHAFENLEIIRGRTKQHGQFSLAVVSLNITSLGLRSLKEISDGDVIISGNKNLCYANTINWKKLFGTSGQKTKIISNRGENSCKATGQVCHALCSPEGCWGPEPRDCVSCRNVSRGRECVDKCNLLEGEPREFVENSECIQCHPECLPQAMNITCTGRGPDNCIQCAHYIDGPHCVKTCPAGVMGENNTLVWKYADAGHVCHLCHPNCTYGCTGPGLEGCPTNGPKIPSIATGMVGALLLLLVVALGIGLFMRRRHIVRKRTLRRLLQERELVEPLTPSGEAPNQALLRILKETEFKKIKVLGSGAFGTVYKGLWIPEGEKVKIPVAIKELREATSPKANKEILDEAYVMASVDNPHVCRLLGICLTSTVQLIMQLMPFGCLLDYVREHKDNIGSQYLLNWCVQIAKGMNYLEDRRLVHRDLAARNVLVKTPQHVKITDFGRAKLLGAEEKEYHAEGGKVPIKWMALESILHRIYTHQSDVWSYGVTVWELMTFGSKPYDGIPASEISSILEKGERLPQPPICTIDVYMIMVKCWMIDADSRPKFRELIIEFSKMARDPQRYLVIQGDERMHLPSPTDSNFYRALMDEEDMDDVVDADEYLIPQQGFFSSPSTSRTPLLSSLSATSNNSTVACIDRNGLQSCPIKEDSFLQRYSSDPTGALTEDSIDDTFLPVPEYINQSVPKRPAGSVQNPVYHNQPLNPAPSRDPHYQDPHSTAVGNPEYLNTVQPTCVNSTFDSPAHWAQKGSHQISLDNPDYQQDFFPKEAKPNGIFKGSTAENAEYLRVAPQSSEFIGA
experiment description: Kinase inhibition assay (ADP-Glo, Promega)
Type: biochemical
condition set: in vitro kinase assay; read-out: IC50 against EGFR L858R/T790M
metric: pIC50
Hey, just a heads up that pIC50 is the negative log base 10 of the concentration in molar.

Q: # input molecule: COC(=O)C/C(C)=C/C(=O)O[C@@H]1C[C@@H](C)[C@H]2[C@@H](C=C[C@H](CC(C)C)[C@]2(C)C(=O)/C=C\O)[C@@H]1O ; wanted: its pIC50
A: 6.63

----------
tested on: UniProt P21802
Sequence (P21802 22-821): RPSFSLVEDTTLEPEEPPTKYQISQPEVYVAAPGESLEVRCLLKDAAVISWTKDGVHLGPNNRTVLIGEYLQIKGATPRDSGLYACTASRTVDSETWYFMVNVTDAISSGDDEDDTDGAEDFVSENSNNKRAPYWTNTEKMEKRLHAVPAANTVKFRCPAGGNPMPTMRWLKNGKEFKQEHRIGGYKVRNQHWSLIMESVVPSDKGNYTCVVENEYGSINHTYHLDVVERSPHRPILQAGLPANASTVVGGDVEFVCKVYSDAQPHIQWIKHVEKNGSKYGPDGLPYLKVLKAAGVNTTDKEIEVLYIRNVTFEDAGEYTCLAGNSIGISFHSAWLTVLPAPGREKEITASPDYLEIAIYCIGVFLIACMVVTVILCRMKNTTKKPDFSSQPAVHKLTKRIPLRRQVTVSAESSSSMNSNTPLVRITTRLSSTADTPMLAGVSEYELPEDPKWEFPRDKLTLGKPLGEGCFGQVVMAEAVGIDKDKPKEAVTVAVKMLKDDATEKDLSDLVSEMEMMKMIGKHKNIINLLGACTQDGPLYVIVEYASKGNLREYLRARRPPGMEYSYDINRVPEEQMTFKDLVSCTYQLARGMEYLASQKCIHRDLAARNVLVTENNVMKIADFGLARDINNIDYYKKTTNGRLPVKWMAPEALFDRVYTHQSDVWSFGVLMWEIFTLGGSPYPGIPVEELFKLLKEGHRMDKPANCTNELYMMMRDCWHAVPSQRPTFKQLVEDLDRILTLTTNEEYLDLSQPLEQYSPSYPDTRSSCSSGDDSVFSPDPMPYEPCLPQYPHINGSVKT
metric: IC50

Q: Tell me reported IC50 for COC(=O)C/C(C)=C/C(=O)O[C@@H]1C[C@@H](C)[C@H]2[C@@H](C=C[C@H](CC(C)C)[C@]2(C)C(=O)/C=C\O)[C@@H]1O , tested with UniProt P21802.
A: > 100 µM

----------
tested on: EGFR L858R (Homo sapiens, UniProt P00533, L858R)
Construct: purchased Promega Corporation, USA
Sequence (P00533 25-1210 L858R): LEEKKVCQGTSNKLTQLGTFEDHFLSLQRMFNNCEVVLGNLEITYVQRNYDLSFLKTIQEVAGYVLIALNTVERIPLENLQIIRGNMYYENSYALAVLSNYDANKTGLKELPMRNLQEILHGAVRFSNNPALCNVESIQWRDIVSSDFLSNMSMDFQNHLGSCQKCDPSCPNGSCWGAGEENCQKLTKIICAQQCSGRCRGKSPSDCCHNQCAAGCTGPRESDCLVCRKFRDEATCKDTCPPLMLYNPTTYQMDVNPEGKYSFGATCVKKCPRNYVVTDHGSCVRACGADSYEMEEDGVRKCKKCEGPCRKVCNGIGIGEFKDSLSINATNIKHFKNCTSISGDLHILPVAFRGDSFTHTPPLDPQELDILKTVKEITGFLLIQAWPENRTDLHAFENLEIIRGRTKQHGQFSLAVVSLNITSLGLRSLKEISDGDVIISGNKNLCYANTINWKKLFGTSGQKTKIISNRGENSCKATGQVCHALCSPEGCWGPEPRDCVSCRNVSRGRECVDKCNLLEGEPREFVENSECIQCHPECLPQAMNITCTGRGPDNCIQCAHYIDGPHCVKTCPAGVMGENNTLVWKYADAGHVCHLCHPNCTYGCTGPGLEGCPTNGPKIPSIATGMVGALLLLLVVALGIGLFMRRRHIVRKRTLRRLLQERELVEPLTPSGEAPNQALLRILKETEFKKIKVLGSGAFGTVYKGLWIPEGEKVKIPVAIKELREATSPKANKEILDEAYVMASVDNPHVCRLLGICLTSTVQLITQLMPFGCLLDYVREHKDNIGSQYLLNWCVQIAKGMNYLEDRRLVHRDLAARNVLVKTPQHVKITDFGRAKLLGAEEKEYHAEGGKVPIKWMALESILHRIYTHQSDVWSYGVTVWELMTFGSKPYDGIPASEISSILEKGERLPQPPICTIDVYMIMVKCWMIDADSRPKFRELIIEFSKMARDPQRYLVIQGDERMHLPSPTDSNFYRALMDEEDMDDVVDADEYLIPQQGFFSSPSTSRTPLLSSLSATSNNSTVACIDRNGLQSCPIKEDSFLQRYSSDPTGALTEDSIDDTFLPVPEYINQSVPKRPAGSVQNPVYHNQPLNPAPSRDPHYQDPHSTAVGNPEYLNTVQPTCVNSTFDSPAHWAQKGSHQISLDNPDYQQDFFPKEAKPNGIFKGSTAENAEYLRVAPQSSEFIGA
experiment description: Kinase inhibition assay (ADP-Glo, Promega)
Format: biochemical
condition set: in vitro kinase assay; read-out: IC50 against EGFR L858R
metric: pIC50
Hey, just a heads up that pIC50 is the negative log base 10 of the concentration in molar.

Q: # input compound: COC(=O)C/C(C)=C/C(=O)O[C@@H]1C[C@@H](C)[C@H]2[C@@H](C=C[C@H](CC(C)C)[C@]2(C)C(=O)/C=C\O)[C@@H]1O ; wanted: its pIC50
A: 8.51

----------
tested on: EGFR extracellular ligand binding domain (Homo sapiens)
Construct: His; purchased Sinobiological, China
experiment description: SPR EGF competition experiments
condition set: EGF 10 nM, Figure 4I; read-out: KD
metric: pKd
Hey, just a heads up that pKd is the negative log base 10 of the concentration in molar.

Q: Tell me reported pKd for CC[C@@H](C)[C@H]1C=C[C@H]2[C@H](O)[C@H](OC(=O)/C=C(\C)CC(=O)O)C[C@@H](C)[C@@H]2[C@@]1(C)C(=O)CCO [Trichoharzin] , tested with EGFR extracellular ligand binding domain (Homo sapiens).
A: 4.39

----------
tested on: EGFR T790M (Homo sapiens, UniProt P00533, T790M)
Construct: purchased Promega Corporation, USA
Sequence (P00533 25-1210 T790M): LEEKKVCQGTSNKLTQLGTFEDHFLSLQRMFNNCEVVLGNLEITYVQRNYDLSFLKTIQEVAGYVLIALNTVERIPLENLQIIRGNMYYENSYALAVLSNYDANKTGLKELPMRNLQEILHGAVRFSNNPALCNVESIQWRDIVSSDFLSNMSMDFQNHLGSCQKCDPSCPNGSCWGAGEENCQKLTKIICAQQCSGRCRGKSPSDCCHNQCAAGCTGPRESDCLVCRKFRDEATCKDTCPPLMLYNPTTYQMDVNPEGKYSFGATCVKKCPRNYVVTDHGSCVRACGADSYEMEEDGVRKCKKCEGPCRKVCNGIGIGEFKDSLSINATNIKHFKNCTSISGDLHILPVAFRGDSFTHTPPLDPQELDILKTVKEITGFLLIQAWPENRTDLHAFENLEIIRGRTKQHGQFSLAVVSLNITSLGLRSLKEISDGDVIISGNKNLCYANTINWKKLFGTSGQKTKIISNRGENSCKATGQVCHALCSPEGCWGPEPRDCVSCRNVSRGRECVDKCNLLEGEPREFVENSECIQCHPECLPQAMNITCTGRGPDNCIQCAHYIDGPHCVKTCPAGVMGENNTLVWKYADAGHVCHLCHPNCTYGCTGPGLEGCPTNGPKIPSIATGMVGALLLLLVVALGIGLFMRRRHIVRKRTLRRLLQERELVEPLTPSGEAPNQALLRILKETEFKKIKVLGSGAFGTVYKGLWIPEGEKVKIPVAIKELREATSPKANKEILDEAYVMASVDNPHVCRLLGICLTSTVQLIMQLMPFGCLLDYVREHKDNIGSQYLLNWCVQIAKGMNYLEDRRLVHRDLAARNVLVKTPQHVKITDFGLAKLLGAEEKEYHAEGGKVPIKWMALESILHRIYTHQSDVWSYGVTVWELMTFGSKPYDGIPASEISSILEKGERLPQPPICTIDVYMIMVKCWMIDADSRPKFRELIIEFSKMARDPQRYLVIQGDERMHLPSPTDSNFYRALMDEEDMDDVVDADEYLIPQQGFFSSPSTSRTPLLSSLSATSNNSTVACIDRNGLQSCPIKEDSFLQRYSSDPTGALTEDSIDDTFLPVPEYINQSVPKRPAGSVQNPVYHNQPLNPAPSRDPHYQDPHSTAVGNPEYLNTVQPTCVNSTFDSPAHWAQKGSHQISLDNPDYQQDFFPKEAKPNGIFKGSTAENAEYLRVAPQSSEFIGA
experiment description: Kinase inhibition assay (ADP-Glo, Promega)
Assay type: biochemical
# IC50 per entry
Please give a number only; it is taken to be in nM.

{"compound structure string": "CC[C@@H](C)[C@H]1C=C[C@H]2[C@H](O)[C@H](OC(=O)/C=C(\\C)CC(=O)O)C[C@@H](C)[C@@H]2[C@@]1(C)C(=O)CCO", "assay value": 32}

Q: # input compound: CC[C@@H](C)[C@H]1C=C[C@H]2[C@H](OC(=O)C/C(C)=C\C(=O)O)[C@H](O)C[C@@H](C)[C@@H]2[C@@]1(C)C(=O)CCO ; wanted: its IC50
A: 29.7

----------
tested on: EGFR extracellular ligand binding domain (Homo sapiens)
Construct: His; purchased Sinobiological, China
experiment description: SPR binding (Biacore 8K)
# pKd per entry
Hey, just a heads up that pKd is the negative log base 10 of the concentration in molar.

Previously resolved entries follow.
{"compound structure string": "CC[C@@H](C)[C@H]1C=C[C@H]2[C@H](OC(=O)C/C(C)=C\\C(=O)O)[C@H](O)C[C@@H](C)[C@@H]2[C@@]1(C)C(=O)CCO", "metric": "pKd", "assay value": 4.26}
{"compound structure string": "CC[C@@H](C)[C@H]1C=C[C@H]2[C@H](OC(=O)/C=C(\\C)CC(=O)OC)[C@H](O)C[C@@H](C)[C@@H]2[C@@]1(C)C(=O)CCO", "metric": "pKd", "assay value": 4.52}

Q: Tell me reported pKd for CC[C@@H](C)[C@H]1C=C[C@H]2[C@H](O)[C@H](OC(=O)/C=C(\C)CC(=O)O)C[C@@H](C)[C@@H]2[C@@]1(C)C(=O)CCO , tested with EGFR extracellular ligand binding domain (Homo sapiens).
A: 5.10

Q: Tell me reported pKd for COC(=O)C/C(C)=C/C(=O)O[C@@H]1C[C@@H](C)[C@H]2[C@@H](C=C[C@H](CC(C)C)[C@]2(C)C(=O)/C=C\O)[C@@H]1O , tested with EGFR extracellular ligand binding domain (Homo sapiens).
A: 4.00
